Measured DC50 accompanies every entry in the list below.
target: SOS1 protein (Homo sapiens, UniProt Q07889); assay: SOS1 degradation assay (Western blot), NCI-H358 cells; format: cell-based; parameters: The degradation of SOS1 by the compounds was investigated on KRAS G12C mutant human non-small cell lung cancer cells NCI-H358; host or cells: NCI-H358 (human cancer cell lines); conditions: SOS1 degradation, NCI-H358 cells, 24 h, Western blot; read-out: NCI-H358 (G12C) DC50

Worked examples follow.
molSmiles | DC50
COc1cc2nc(C)nc(N[C@H](C)c3cc(N)cc(C(F)(F)F)c3)c2cc1[C@H]1CC[C@H](C(=O)N2CCN(CC#CC3CCN(C(=O)c4ccc(Cl)c(N5CCC(=O)NC5=O)c4)CC3)CC2)CC1 | 1 to 10 µM
COc1cc2nc(C)nc(N[C@H](C)c3cc(N)cc(C(F)(F)F)c3)c2cc1[C@H]1CC[C@H](C(=O)N2CCC(CCN(C)CC3CCN(C(=O)c4ccc(Cl)c(N5CCC(=O)NC5=O)c4)CC3)CC2)CC1 | 1 to 10 µM
COc1cc2nc(C)nc(N[C@H](C)c3cc(N)cc(C(F)(F)F)c3)c2cc1[C@H]1CC[C@H](C(=O)N2CCC(CC3CCC4(CC3)CCN(C(=O)c3ccc(Cl)c(N5CCC(=O)NC5=O)c3)CC4)CC2)CC1 | 0.05 to 0.1 µM

[ask] Jot down DC50 (SOS1 protein (Homo sapiens, UniProt Q07889)) of COc1cc2nc(C)nc(N[C@H](C)c3cc(-c4ccccc4CN(C)C)cs3)c2cc1[C@H]1CC[C@H](C(=O)N2CCC(CCOCC3CCN(C(=O)c4ccc(Cl)c(N5CCC(=O)NC5=O)c4)CC3)CC2)CC1 .
[reply] < 0.05 µM

[ask] Give measured DC50 for COc1cc2nc(C)nc(N[C@H](C)c3cc(-c4c(Cl)cccc4CN(C)C)cs3)c2cc1[C@H]1CC[C@H](C(=O)N2CCC(OCCCC3CCN(C(=O)c4ccc(Cl)c(N5CCC(=O)NC5=O)c4)CC3)CC2)CC1 (SOS1 protein (Homo sapiens, UniProt Q07889)).
[reply] 0.1 to 0.5 µM

----------
Recorded Dmax, one value per entry.
target: SOS1 protein (Homo sapiens, UniProt Q07889); assay: SOS1 degradation assay (Western blot), A-427 cells; type: cell-based; set-up: host or cells: A-427 (human cancer cell lines); settings: 24 h, read-out: A427 (G12D) Dmax

Example entries begin here.
molecule | assayedSystem | readoutName | endpointResult
CNCc1ccccc1-c1csc([C@@H](C)Nc2nc(C)nc3cc(OC)c([C@H]4CC[C@H](C(=O)N5CCN(CC6CCC7(CC6)CCN(C(=O)c6ccc(OC)c(N8CCC(=O)NC8=O)c6)CC7)CC5)CC4)cc23)c1 [Example 73] | SOS1 protein (Homo sapiens, UniProt Q07889) | Dmax | 80 to 100%
COc1cc2nc(C)nc(N[C@H](C)c3cccc4c3CCS4(=O)=O)c2cc1[C@H]1CC[C@H](C(=O)N2CCN(CC3CCC4(CC3)CCN(C(=O)c3ccc(Cl)c(N5CCC(=O)NC5=O)c3)CC4)CC2)CC1 [Example 10] | SOS1 protein (Homo sapiens, UniProt Q07889) | Dmax | 80 to 100%
COc1cc2nc(C)nc(N[C@H](C)c3cc(N)cc(C(F)(F)F)c3)c2cc1[C@H]1CC[C@H](C(=O)N2CCN(CC3CCC4(CC3)CCN(C(=O)c3ccc(Cl)c(N5CCC(=O)NC5=O)c3)CC4)CC2)CC1 [Example 2] | SOS1 protein (Homo sapiens, UniProt Q07889) | Dmax | 80 to 100%
COc1cc2nc(C)nc(N[C@H](C)c3cc(N)cc(C(F)(F)F)c3)c2cc1[C@H]1CC[C@H](C(=O)N2CCN(CCOCC3CCN(C(=O)c4ccc(Cl)c(N5CCC(=O)NC5=O)c4)CC3)CC2)CC1 [Example 33] | SOS1 protein (Homo sapiens, UniProt Q07889) | Dmax | 80 to 100%
COc1cc2nc(C)nc(N[C@H](C)c3cc(N)cc(C(F)(F)F)c3)c2cc1[C@H]1CC[C@H](C(=O)N2CCN(CCC3CCC4(CC3)CCN(C(=O)c3ccc(Cl)c(N5CCC(=O)NC5=O)c3)CC4)CC2)CC1 [Example 1] | SOS1 protein (Homo sapiens, UniProt Q07889) | Dmax | 80 to 100%

Continue with the molecule presented below.
[ask] Determine its reported Dmax: COc1cc2nc(C)nc(N[C@H](C)c3cc(N)cc(C(F)(F)F)c3)c2cc1[C@H]1CC[C@H](C(=O)N2CCC(CCOCC3CCN(C(=O)c4ccc(Cl)c(N5CCC(=O)NC5=O)c4)CC3)CC2)CC1 [Example 19]
[reply] 50 to 80%

----------
target: SOS1 protein (Homo sapiens); test: SOS1 degradation assay (Western blot), NCI-H358 cells; assay type: cell-based; set-up: The degradation of SOS1 by the compounds was investigated on KRAS G12C mutant human non-small cell lung cancer cells NCI-H358; host or cells: NCI-H358 (human cancer cell lines); details: SOS1 degradation, NCI-H358 cells, 24 h, Western blot; read-out: NCI-H358 (G12C) Dmax
readoutName: Dmax

[ask] Entry COc1cc2nc(C)nc(N[C@H](C)c3cc(-c4c(Cl)cccc4CN(C)C)cs3)c2cc1[C@H]1CC[C@H](C(=O)N2CCC(CCCOC3CCN(C(=O)c4ccc(Cl)c(N5CCC(=O)NC5=O)c4)CC3)CC2)CC1 needs its Dmax filled in; supply it.
[reply] 80 to 100%

[ask] Give the value of Dmax reported for the following: COc1cc2nc(C)nc(N[C@H](C)c3cc(-c4c(Cl)cccc4CN(C)C)cs3)c2cc1C1=CCC(C(=O)N2CCC(CCOCC3CCN(C(=O)c4ccc(Cl)c(C5CCC(=O)NC5=O)c4)CC3)CC2)CC1 (stereo partly drawn)
[reply] 50 to 80%

[ask] Answer with the recorded Dmax for the compound listed here: COc1cc2nc(C)nc(N[C@H](C)c3cc(N)cc(C(F)(F)F)c3)c2cc1[C@H]1CC[C@H](C(=O)N2CCN(CC3CCC4(CC3)CCN(C(=O)c3cccc(N5CCC(=O)NC5=O)c3)CC4)CC2)CC1
[reply] 30 to 50%

----------
Measured Dmax by item
Target: SOS1 protein (Homo sapiens, UniProt Q07889)
Sequence (Q07889 1-1333): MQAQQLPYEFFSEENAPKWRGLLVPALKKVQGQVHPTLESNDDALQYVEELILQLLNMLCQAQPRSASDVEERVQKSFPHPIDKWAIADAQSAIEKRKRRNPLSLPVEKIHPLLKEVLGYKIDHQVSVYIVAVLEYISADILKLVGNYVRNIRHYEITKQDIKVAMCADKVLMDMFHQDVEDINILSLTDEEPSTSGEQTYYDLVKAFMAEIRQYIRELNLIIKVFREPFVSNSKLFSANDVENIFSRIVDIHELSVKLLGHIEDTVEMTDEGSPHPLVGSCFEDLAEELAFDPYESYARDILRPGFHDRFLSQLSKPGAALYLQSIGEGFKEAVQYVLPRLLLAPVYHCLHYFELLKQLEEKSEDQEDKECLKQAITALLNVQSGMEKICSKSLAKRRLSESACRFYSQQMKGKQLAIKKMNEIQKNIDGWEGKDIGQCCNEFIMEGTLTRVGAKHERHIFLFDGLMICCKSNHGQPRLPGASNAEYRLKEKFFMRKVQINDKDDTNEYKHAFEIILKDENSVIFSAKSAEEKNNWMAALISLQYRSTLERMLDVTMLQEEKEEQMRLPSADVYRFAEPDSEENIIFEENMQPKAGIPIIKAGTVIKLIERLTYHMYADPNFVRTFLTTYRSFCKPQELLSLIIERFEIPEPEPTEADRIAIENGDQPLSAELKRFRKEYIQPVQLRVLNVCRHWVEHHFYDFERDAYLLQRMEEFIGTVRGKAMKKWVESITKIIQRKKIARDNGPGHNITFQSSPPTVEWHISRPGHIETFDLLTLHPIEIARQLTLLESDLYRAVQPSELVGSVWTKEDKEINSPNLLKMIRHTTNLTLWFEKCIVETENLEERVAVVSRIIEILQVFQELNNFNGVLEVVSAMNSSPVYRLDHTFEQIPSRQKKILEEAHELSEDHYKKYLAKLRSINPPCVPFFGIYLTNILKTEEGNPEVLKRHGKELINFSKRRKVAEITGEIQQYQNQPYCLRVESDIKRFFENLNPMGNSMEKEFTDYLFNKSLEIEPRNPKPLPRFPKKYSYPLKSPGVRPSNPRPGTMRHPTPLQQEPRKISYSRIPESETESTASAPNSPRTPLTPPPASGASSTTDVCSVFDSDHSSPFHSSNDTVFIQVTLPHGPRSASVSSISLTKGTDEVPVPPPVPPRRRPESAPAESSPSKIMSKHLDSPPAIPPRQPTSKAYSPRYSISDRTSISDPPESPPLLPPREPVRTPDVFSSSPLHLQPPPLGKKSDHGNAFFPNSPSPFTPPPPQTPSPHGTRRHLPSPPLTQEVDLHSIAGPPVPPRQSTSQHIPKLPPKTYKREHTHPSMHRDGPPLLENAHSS
Test: SOS1 degradation assay (Western blot), NCI-H358 cells
Assay type: cell-based
Set-up: The degradation of SOS1 by the compounds was investigated on KRAS G12C mutant human non-small cell lung cancer cells NCI-H358; host or cells: NCI-H358 (human cancer cell lines)
Conditions: SOS1 degradation, NCI-H358 cells, 24 h, Western blot; read-out: NCI-H358 (G12C) Dmax

Below, 3 molecules whose answers are already recorded.
molSmiles | endpointResult
COc1cc2nc(C)nc(N[C@H](C)c3cc(-c4c(Cl)cccc4CN(C)C)cs3)c2cc1[C@H]1CC[C@H](C(=O)N2CCN(CCCCC3CCN(C(=O)c4ccc(Cl)c(N5CCC(=O)NC5=O)c4)CC3)CC2)CC1 | 80 to 100%
COc1cc2nc(C)nc(N[C@H](C)c3cc(N)cc(C(F)(F)F)c3)c2cc1[C@H]1CC[C@H](C(=O)N2CCN(CCN3CCC4(CC3)CCN(C(=O)c3ccc(Cl)c(N5CCC(=O)NC5=O)c3)CC4)CC2)CC1 | 80 to 100%
CNCc1ccccc1-c1csc([C@@H](C)Nc2nc(C)nc3cc(OC)c([C@H]4CC[C@H](C(=O)N(C)CCCC5CCN(C(=O)c6ccc(Cl)c(N7CCC(=O)NC7=O)c6)CC5)CC4)cc23)c1 | < 30%

[ask] Tell me Dmax reported for CNCc1ccccc1-c1csc([C@@H](C)Nc2nc(C)nc3cc(OC)c([C@H]4CC[C@H](C(=O)N5CCN(CC6CCC7(CC6)CCN(C(=O)c6ccc(OC)c(N8CCC(=O)NC8=O)c6)CC7)CC5)CC4)cc23)c1
[reply] 80 to 100%

[ask] Specify Dmax for COc1cc2nc(C)nc(N[C@H](C)c3cc(N)cc(C(F)(F)F)c3)c2cc1[C@H]1CC[C@H](C(=O)N2CCC(CN3CCC4(CC3)CCN(C(=O)c3ccc(Cl)c(N5CCC(=O)NC5=O)c3)CC4)CC2)CC1 and stop.
[reply] 30 to 50%

// provenance: patent US20240261417A1
